% Inh. (% Inhibition of SARS-CoV-2) for assorted molecules
tested on: SARS-CoV-2; conditions: 10 µM

{"MOLECULE": "O=C(/C=C/c1ccc2ccccc2n1)c1ccncc1", "TESTED TARGET": "SARS-CoV-2", "% Inh. (% Inhibition of SARS-CoV-2), %": 101.3}
{"MOLECULE": "CC(C)(C)c1cc(O)c(C(C)(C)C)cc1O", "TESTED TARGET": "SARS-CoV-2", "% Inh. (% Inhibition of SARS-CoV-2), %": 50.6}
{"MOLECULE": "Cc1nc(C#Cc2ccnc(Cl)c2)c(C)n1-c1ccc(OC(F)(F)F)cc1 [CTEP (RO4956371)]", "TESTED TARGET": "SARS-CoV-2", "% Inh. (% Inhibition of SARS-CoV-2), %": 59.7}

---

tested on: SARS-CoV-2; conditions: 10 µM
Is % Inh. (% Inhibition of SARS-CoV-2) at least 80%? Then Criterion met. If not, Criterion not met.

{"MOLECULE": "Cc1nn(C)c2nc(NNC(=O)Nc3cc(Cl)nc(Cl)c3)cc(C(C)C)c12", "CLASS NAME": "Criterion met"}
{"MOLECULE": "Cn1cc(-c2ccc3c(c2)CCN3C(=O)Cc2cccc(C(F)(F)F)c2)c2c(N)ncnc21", "CLASS NAME": "Criterion met"}
{"MOLECULE": "CN(C)C(=O)c1ccc(S(=O)(=O)c2ccc(NC(=O)[C@@](C)(O)C(F)(F)F)c(Cl)c2)cc1", "CLASS NAME": "Criterion met"}
{"MOLECULE": "CC(C)(C)Nc1nc(Nc2ccc(C(N)=O)cc2)cc(N)c1C#N", "CLASS NAME": "Criterion not met"}
{"MOLECULE": "COc1cc2cc(c1Cl)N(C)C(=O)C[C@H](OC(=O)C(C)C)[C@]1(C)O[C@@H]1[C@H](C)[C@@H]1C[C@@](O)(NC(=O)O1)[C@H](OC)/C=C/C=C(\\C)C2", "CLASS NAME": "Criterion not met"}
{"MOLECULE": "CCCCC1CCC(c2nc(-c3ccncc3)no2)CC1 (stereo not shown)", "CLASS NAME": "Criterion met"}
{"MOLECULE": "CN(C)CCNc1nc2cc(O)ccc2c2c1C(=O)c1ccccc1-2.Cl.Cl [TAS-103 (dihydrochloride)]", "CLASS NAME": "Criterion met"}
{"MOLECULE": "Fc1ccc(CNc2ncnc3ccc(F)cc23)cc1", "CLASS NAME": "Criterion met"}
{"MOLECULE": "Cc1sc2c(c1C)C(c1ccc(Cl)cc1)=N[C@@H](CC(=O)Nc1ccc(OCCOCCOCCOCCNc3cccc4c3C(=O)N(C3CCC(=O)NC3=O)C4=O)cc1)c1nnc(C)n1-2 (stereo partly shown)", "CLASS NAME": "Criterion not met"}
{"MOLECULE": "O=C(Nc1ccccc1Br)N[C@@H]1CCN(c2ccc(C(F)(F)F)cn2)C1", "CLASS NAME": "Criterion not met"}
{"MOLECULE": "Cl.Cl.Fc1ccc(C(OCCN2CCN(C/C=C/c3ccccc3)CC2)c2ccc(F)cc2)cc1", "CLASS NAME": "Criterion not met"}
{"MOLECULE": "CC(=O)N1CCN(CCOc2ccc(C3CCN(C4=Nn5c(nnc5C(F)(F)F)CC4)CC3)cc2)CC1", "CLASS NAME": "Criterion met"}
{"MOLECULE": "COc1cc2ncnc(Nc3cccc(Cl)c3)c2cc1OC", "CLASS NAME": "Criterion not met"}
{"MOLECULE": "NCC(=O)Nc1ccc(-n2nc(C(F)(F)F)cc2-c2ccc3c(ccc4ccccc43)c2)cc1", "CLASS NAME": "Criterion met"}
{"MOLECULE": "COc1ccc(OC)c(CN(C(C)=O)c2cc(F)ccc2Oc2ccccc2)c1", "CLASS NAME": "Criterion met"}
{"MOLECULE": "c1ccc2nc(C3=NCCN3)cnc2c1", "CLASS NAME": "Criterion not met"}
{"MOLECULE": "COc1ccc(CCN(C)CCCOc2ccc(S(=O)(=O)c3c(C(C)C)c4ccccc4n3C)cc2)cc1OC.O=C(O)C(=O)O [SR-33805 oxalate]", "CLASS NAME": "Criterion not met"}
{"MOLECULE": "COc1cc(N2CCC(N)CC2)ccc1Nc1ncc(Cl)c(-c2c[nH]c3ccccc23)n1", "CLASS NAME": "Criterion met"}
{"MOLECULE": "c1cncc(CN2CCC(n3ncc4c(N5CCOCC5)nc(-c5ccc6[nH]ccc6c5)nc43)CC2)c1", "CLASS NAME": "Criterion met"}

---

tested on: SARS-CoV-2; conditions: 10 µM
Each entry gets NO if its % Inh. (% Inhibition of SARS-CoV-2) stays under 80%, and YES if its % Inh. (% Inhibition of SARS-CoV-2) is 80% or above.

{"COMPOUND": "CCOC(=O)c1c(C)[nH]c2ccc3c(c12)CN1CCc2cc(OC)ccc2C1O3 (stereo not shown)", "CLASS NAME": "YES"}
{"COMPOUND": "CCC(C)C1O[C@]2(C=C[C@@H]1C)C[C@@H]1CC(C/C=C(\\C)[C@@H](OC3C[C@H](OC)[C@@H](OC4C[C@H](OC)[C@@H](O)[C@H](C)O4)[C@H](C)O3)[C@@H](C)/C=C/C=C3\\COC4[C@H](O)C(C)=CC(C(=O)O1)[C@]34O)O2 (stereo partly shown)", "CLASS NAME": "YES"}
{"COMPOUND": "CCc1ccccc1OC[C@@H](O)CN[C@H]1CCCc2ccccc21 [SR-59230A]", "CLASS NAME": "NO"}
{"COMPOUND": "CCCCCC(O)c1cccc(OCc2ccc3ccccc3n2)c1 (stereo not shown)", "CLASS NAME": "YES"}
{"COMPOUND": "CNc1ncc2cc(-c3cc(NC(=O)NCCC(C)(C)C)c(F)cc3C)c(C)nc2n1", "CLASS NAME": "YES"}
{"COMPOUND": "COc1cc2c(cc1OC)CN(C(=O)[C@@H](NCc1ccncc1)C(C)(C)C)CC2", "CLASS NAME": "NO"}
{"COMPOUND": "CC1CCN(C(c2ccc(F)cc2)c2ccc(C(C)C(=O)O)cc2-c2ccc(C(F)(F)F)cc2)CC1 (stereo not shown)", "CLASS NAME": "YES"}
{"COMPOUND": "COc1ccc(CC2NCCc3c2[nH]c2ccc(C)cc32)c(Cl)c1OC (stereo not shown)", "CLASS NAME": "YES"}
{"COMPOUND": "Cl.O.O=CN1CCC(C(=O)NCCN2CCC(=C3c4ccccc4C=Cc4ccccc43)CC2)CC1", "CLASS NAME": "NO"}
{"COMPOUND": "O=C(Nc1ccc(S(=O)(=O)C(F)(F)F)cc1)C1=CCN(c2ncccc2C(F)(F)F)CC1", "CLASS NAME": "NO"}

---

test system: SARS-CoV-2; conditions: 10 µM
Structures can show the parent of a compound that is named as a salt.

{"MOLECULE": "COc1ccccc1C1(O)CCN(CCCn2c3ccccc3c3ccccc32)CC1", "% Inh. (% Inhibition of SARS-CoV-2), %": 71.8}
{"MOLECULE": "Cc1ccc(-c2csc(NC(=O)c3ccccc3)n2)c(C)c1", "% Inh. (% Inhibition of SARS-CoV-2), %": 89.8}
{"MOLECULE": "Cc1c(Cn2c(C)nc3c(C(=O)O)cc(N4CCOCC4)cc32)cccc1C(F)(F)F", "% Inh. (% Inhibition of SARS-CoV-2), %": 88.1}
{"MOLECULE": "CSc1ccccc1Nc1nc(N2CCNCC2)nc2c(NCC3CC3)ncnc12 [KHK-IN-1 (hydrochloride)]", "% Inh. (% Inhibition of SARS-CoV-2), %": 71.8}
{"MOLECULE": "COc1cc2nc(C3CC3)nc(N3CCN(c4ccccc4OC)CC3)c2cc1OC", "% Inh. (% Inhibition of SARS-CoV-2), %": 87.7}
{"MOLECULE": "CO[C@@H](C)Cn1c(=O)n(C)c2cnc3ccc(-c4cncc(C(C)(C)O)c4)cc3c21", "% Inh. (% Inhibition of SARS-CoV-2), %": 92.7}
{"MOLECULE": "COc1ccc2nc3c(c(N)c2c1)CCCC3", "% Inh. (% Inhibition of SARS-CoV-2), %": 58.7}
{"MOLECULE": "Nc1cc(C(F)(F)F)c(-c2cc(N3CCOCC3)nc(N3CCOCC3)n2)cn1", "% Inh. (% Inhibition of SARS-CoV-2), %": 97.6}
{"MOLECULE": "COC(=O)C1=C(C)NC(C)=C(C(=O)OCCSc2ccccc2)C1C (stereo not drawn)", "% Inh. (% Inhibition of SARS-CoV-2), %": 55.3}
{"MOLECULE": "Cc1ccc2c(=O)c3ccccc3n(CCCN)c2c1C.O=C(O)/C=C\\C(=O)O [ER-27319 maleate]", "% Inh. (% Inhibition of SARS-CoV-2), %": 101.0}
{"MOLECULE": "CNS(=O)(=O)Nc1nccc(Cc2c(C)c3ccc(Oc4ncccn4)cc3oc2=O)c1F", "% Inh. (% Inhibition of SARS-CoV-2), %": 102.6}
{"MOLECULE": "CN1CC[C@@H](c2c(O)cc(O)c3c(=O)cc(-c4ccccc4Cl)oc23)[C@@H]1CO.Cl", "% Inh. (% Inhibition of SARS-CoV-2), %": 94.4}
{"MOLECULE": "Cc1ccccc1C(=O)c1ccc(Nc2ccc(Br)cc2N)cc1Cl", "% Inh. (% Inhibition of SARS-CoV-2), %": 66.1}
{"MOLECULE": "Cc1ccc(Nc2ncc3c(n2)N(C)C(=O)N(c2cc(NC(=O)c4cccc(C(F)(F)F)c4)ccc2C)C3)cn1", "% Inh. (% Inhibition of SARS-CoV-2), %": 107.6}
{"MOLECULE": "COc1cc2ncnc(Nc3cccc(Br)c3)c2cc1OC.Cl [PD153035 (Hydrochloride)]", "% Inh. (% Inhibition of SARS-CoV-2), %": 97.2}
{"MOLECULE": "CCOc1cc(C(C)(C)C)ccc1C1=N[C@@](C)(c2ccc(Cl)cc2)[C@@](C)(c2ccc(Cl)cc2)N1C(=O)N1CCN(CCCS(C)(=O)=O)CC1 [RG7112 (RO5045337)]", "% Inh. (% Inhibition of SARS-CoV-2), %": 88.5}
{"MOLECULE": "CC1(C)CC(=O)c2c(C(F)(F)F)nn(-c3ccc(C(N)=O)c(N[C@H]4CC[C@H](OC(=O)CN)CC4)c3)c2C1 [PF-04929113 (SNX-5422)]", "% Inh. (% Inhibition of SARS-CoV-2), %": 91.3}
{"MOLECULE": "CCCCCCN(CCCCCC)C(=O)Cc1c(-c2ccc(F)cc2)[nH]c2ccccc12", "% Inh. (% Inhibition of SARS-CoV-2), %": 73.5}
{"MOLECULE": "Cc1ccc(NC(=O)c2cccc(C(C)(C)C#N)c2)cc1Nc1ccc2ncn(C)c(=O)c2c1", "% Inh. (% Inhibition of SARS-CoV-2), %": 99.6}
{"MOLECULE": "CC(C)(C)c1cc(C(=O)/C=C/c2ccc(C(=O)O)cc2)cc(C(C)(C)C)c1", "% Inh. (% Inhibition of SARS-CoV-2), %": 87.5}
{"MOLECULE": "O=C(O)[C@]1(Cc2cccc(Nc3nccs3)n2)CC[C@@H](Oc2cccc(Cl)c2F)CC1", "% Inh. (% Inhibition of SARS-CoV-2), %": 77.9}
{"MOLECULE": "COc1ccc2[nH]c3c(-c4cccc5ccccc45)nccc3c2c1", "% Inh. (% Inhibition of SARS-CoV-2), %": 68.6}
{"MOLECULE": "COc1c(C)cnc(Cn2cc(C#CCC(C)(C)O)c3c(Cl)nc(N)nc32)c1C", "% Inh. (% Inhibition of SARS-CoV-2), %": 95.0}
{"MOLECULE": "COc1ncc2cc(C(=O)Nc3cc(C(=O)NCc4cccc(Cl)c4)ccc3Cl)c(=O)[nH]c2n1", "% Inh. (% Inhibition of SARS-CoV-2), %": 77.3}
